Give IC50 for every item shown.
Target Under Test: KRas G12R (Homo sapiens, UniProt P01116, G12R)
Construct: KRas G12R (1-169) loaded with GDP nucleotide; biotin (biotinylated)
Sequence (P01116 1-169 G12R): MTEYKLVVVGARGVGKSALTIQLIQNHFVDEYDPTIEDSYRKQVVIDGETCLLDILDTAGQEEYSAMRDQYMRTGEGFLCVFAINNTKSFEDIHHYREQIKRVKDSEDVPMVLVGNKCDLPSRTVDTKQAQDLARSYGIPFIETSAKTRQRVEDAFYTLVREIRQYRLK
Experimental Protocol: SOS1-Catalyzed Nucleotide Exchange Assay, KRas G12R
Recorded Conditions: 10 nM KRas G12R (1-169, GDP-loaded), 200 nM SOS1

-- ask Answer with the recorded IC50 of Oc1ccc2c(c1)-c1ncc3c(nc(OC[C@@]45CCCN4C[C@H](F)C5)nc3c1F)N1CCCC(CCCCCCC2)C1 (stereo partly drawn) [Compound 143a] only.
-- reply 0.1 to 1 µM

-- ask Tell me its IC50 given Oc1cc(Cl)c2c(c1)-c1ncc3c(nc(OC[C@@]45CCCN4C[C@H](F)C5)nc3c1F)N1CCCC(Cc3noc(n3)CCCCCC2)C1 (stereo partly drawn) [Compound 153a] as the entry.
-- reply 0.1 to 1 µM

-- ask Give a short answer stating reported IC50 for Oc1cc(Cl)c2c(c1)-c1ncc3c(nc(OC[C@@]45CCCN4C[C@H](F)C5)nc3c1F)N1CCCC(O)(CCCCCCC2)C1 (stereo partly drawn) [Compound 152a] .
-- reply ≤ 0.1 µM
